System: human Q-31 tryptase (Homo sapiens)
Construct: human cytotoxic lymphocyte Q31 tryptase; endogenous in cells; host or cells: human cytotoxic lymphocyte Q31
Sequence (P12544 29-262): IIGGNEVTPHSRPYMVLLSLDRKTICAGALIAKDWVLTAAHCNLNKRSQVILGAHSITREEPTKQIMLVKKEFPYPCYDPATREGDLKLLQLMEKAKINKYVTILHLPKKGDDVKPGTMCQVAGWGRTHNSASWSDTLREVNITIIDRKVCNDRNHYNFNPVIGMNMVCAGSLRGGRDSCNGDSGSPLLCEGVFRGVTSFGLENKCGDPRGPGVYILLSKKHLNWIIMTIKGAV
procedureSummary: Inactivation rate of human Q-31 tryptase
Type: biochemical
conditionNotes: Table VII; pH 7.5, 25° C; [I] 3 to 500 μM; read-out: kobs/[I]

- molecule: "N=C(N)SCCCOc1oc(=O)c2cc(N)ccc2c1Cl"
  kinact/KI (M⁻¹ s⁻¹): 1960
- molecule: "CCOc1oc(=O)c2cc(NC(=N)N)ccc2c1Cl [7-guanidino-3-ethoxy-4-chloroisocoumarin, 7-guanidino-4-chloro-3-ethoxyisocoumarin]"
  kinact/KI (M⁻¹ s⁻¹): 6180
- molecule: "COc1oc(=O)c2cc(NC(=N)N)ccc2c1Cl"
  kinact/KI (M⁻¹ s⁻¹): 6620
- molecule: "N=C(N)Nc1ccc2c(Cl)c(OCCc3ccccc3)oc(=O)c2c1"
  kinact/KI (M⁻¹ s⁻¹): 1880
- molecule: "N=C(N)SCCCOc1oc(=O)c2ccccc2c1Cl"
  kinact/KI (M⁻¹ s⁻¹): 12800
- molecule: "O=c1oc(Cl)c(Cl)c2ccccc12 [3,4-dichloroisocoumarin, reference compound]"
  kinact/KI (M⁻¹ s⁻¹): 29

====

targetSystem: chymotrypsin (Bos taurus, UniProt P00766)
procedureSummary: Inactivation of chymotrypsin
Type: biochemical, bovine
conditionNotes: pH 7.5; Table XVI; second order, equimolar inhibitor and enzyme; read-out: kobs/[I]
Label no if kinact/KI falls below 80000 M⁻¹ s⁻¹; label yes in every other case.

- compound: "O=c1oc(OCCBr)c(Cl)c2ccc([N+](=O)[O-])cc12"
  answerLabel: "yes"
- compound: "CC(CBr)Oc1oc(=O)c2cc([N+](=O)[O-])ccc2c1Cl (centres unmarked)"
  answerLabel: "yes"
- compound: "O=C(Cc1ccccc1)Nc1ccc2c(Cl)c(OCCCBr)oc(=O)c2c1"
  answerLabel: "yes"
- compound: "O=c1oc(OCCBr)c(Cl)c2ccc(NC(=S)Nc3ccccc3)cc12"
  answerLabel: "no"

====

targetSystem: UniProt:P00766
procedureSummary: Inactivation of chymotrypsin
Format: biochemical, bovine
conditionNotes: Table IV; pH 7.5, 25° C; [I] 0.004 to 0.33 mM; read-out: kobs/[I]
observedProperty: log10(kinact/KI) (log10 of the value in M⁻¹ s⁻¹)

- molecule: "CCOc1cc2ccc(NC(=N)N)cc2c(=O)o1 [7-guanidino-3-ethoxyisocoumarin]"
  targetSystem: "UniProt:P00766"
  endpointResult: 3.00
- molecule: "N=C(N)SCCCOc1oc(=O)c2ccccc2c1Cl"
  targetSystem: "UniProt:P00766"
  endpointResult: 3.23
- molecule: "CCOc1oc(=O)c2cc(NC(=N)N)ccc2c1Cl [7-guanidino-3-ethoxy-4-chloroisocoumarin, 7-guanidino-4-chloro-3-ethoxyisocoumarin]"
  targetSystem: "UniProt:P00766"
  endpointResult: 4.57
- molecule: "N=C(N)SCCOc1oc(=O)c2ccccc2c1Cl"
  targetSystem: "UniProt:P00766"
  endpointResult: 3.11
- molecule: "COc1cc2ccc(NC(=N)N)cc2c(=O)o1 [7-guanidino-3-methoxyisocoumarin]"
  targetSystem: "UniProt:P00766"
  endpointResult: 2.43
- molecule: "N=C(N)SCCCOc1oc(=O)c2cc(N)ccc2c1Cl"
  targetSystem: "UniProt:P00766"
  endpointResult: 3.20
- molecule: "NCCCOc1cc2ccccc2c(=O)o1 [3-(3-aminopropoxy)isocoumarin]"
  targetSystem: "UniProt:P00766"
  endpointResult: 1.58
- molecule: "NCCCOc1oc(=O)c2ccccc2c1Cl [3-(3-aminopropoxy)-4-chloroisocoumarin]"
  targetSystem: "UniProt:P00766"
  endpointResult: 2.76
- molecule: "N=C(N)Nc1ccc2c(Cl)c(OCCc3ccccc3)oc(=O)c2c1"
  targetSystem: "UniProt:P00766"
  endpointResult: 4.58
- molecule: "N=C(N)Nc1ccc2cc(OCCc3ccccc3)oc(=O)c2c1"
  targetSystem: "UniProt:P00766"
  endpointResult: 3.41
- molecule: "COc1oc(=O)c2cc(NC(=N)N)ccc2c1Cl"
  targetSystem: "UniProt:P00766"
  endpointResult: 3.86

These data points were gathered from patent US5324648A.
